Can you tell me Ki for the items I'm about to list?
Target: rat brush border membrane vesicles (Rattus norvegicus)
Construct: from tissue; host or cells: rat (male Sprague-Dawley) small-intestinal mucosa, brush border membrane vesicles
Assay: Binding assay with rat brush border membrane vesicles
Settings: 50 nM ^3H-EZE-glucuronide, 150 μg protein/assay; read-out: inhibition constant Ki, Rat
Give bare numbers, in nM.

// sample CS(=O)(=O)NCC#Cc1ccc(N2C(=O)[C@H](CC[C@H](O)c3ccc(F)cc3)[C@H]2c2ccc(O[C@@H]3O[C@H](C(=O)O)[C@@H](O)[C@H](O)[C@H]3O)cc2)cc1 , its Ki was 15

Attention now turns to another entry.
// sample O=C(O)[C@H]1O[C@@H](Oc2ccc([C@@H]3[C@@H](CC[C@H](O)c4ccc(F)cc4)C(=O)N3c3ccc(F)cc3)cc2)[C@H](O)[C@@H](O)[C@@H]1O [Compound 1, Ezetimibe glucuronide] , its Ki was 530
